# Test system: prickly sida
# assay-details: Test F preemergence test
# Assay type: in vivo, Sida spinosa
# condition-details: 125 g ai/ha, preemergence, scale 0 to 100
measured-attribute: Prickly Sida plant response rating
Numbers only.

Examples with answers:
# molecule, Prickly Sida plant response rating
rows = [
    ("Cc1cc[n+]([O-])c(S(=O)(=O)Cc2c(C(F)(F)F)nn(C)c2OCC(F)(F)F)c1", 100),
    ("Cc1cc([S+]([O-])Cc2c(C(F)(F)F)nn(C)c2OCC(F)(F)F)[n+]([O-])cc1Cl (stereo not drawn)", 90),
    ("CC(Oc1c(C[S+]([O-])c2ccc(Cl)c[n+]2[O-])c(C(F)(F)F)nn1C)C(F)(F)F (stereo not drawn)", 100),
    ("CC(Oc1c(C[S+]([O-])c2cccc[n+]2[O-])c(C(F)(F)F)nn1C)C(F)(F)F (stereo not drawn)", 80),
    ("CC(c1c(C(F)(F)F)nn(C)c1OCC(F)(F)F)S(=O)(=O)c1cccc[n+]1[O-] (racemic)", 100),
]

In one line, give reported Prickly Sida plant response rating of the entry Cn1nc(C(F)(F)F)c(C[S+]([O-])c2ccc(F)c[n+]2[O-])c1OC(F)F (stereo not drawn) .
95

* * *

# Test system: kochia
# assay-details: Test F preemergence test
# Type: in vivo, Kochia scoparia
# condition-details: 125 g ai/ha, preemergence, scale 0 to 100
measured-attribute: Kochia plant response rating
Answers are plain numbers.

Examples with answers:
# compound, system, Kochia plant response rating
measured = [
    ("CC(Oc1c(C[S+]([O-])c2ccc(Cl)c[n+]2[O-])c(C(F)(F)F)nn1C)C(F)(F)F (stereo not drawn)", "kochia", 50),
    ("Cc1cc[n+]([O-])c(S(=O)(=O)C(Cl)c2c(C(F)(F)F)nn(C)c2Cl)c1 (racemic)", "kochia", 98),
    ("Cc1cc[n+]([O-])c(S(=O)(=O)C(C)c2c(C(F)(F)F)nn(C)c2OC(F)F)c1 (stereo not drawn)", "kochia", 100),
    ("CCn1nc(C(F)(F)F)c(CS(=O)(=O)c2cccc[n+]2[O-])c1OCC(F)(F)F", "kochia", 100),
    ("Cc1cc[n+]([O-])c(S(=O)(=O)C(Cl)c2c(C(F)(F)F)nn(C)c2OCC(F)(F)F)c1 (racemic)", "kochia", 0),
    ("Cn1nc(C(F)(F)C(F)(F)F)c(C[S+]([O-])c2cccc[n+]2[O-])c1OCC(F)(F)F (stereo not drawn)", "kochia", 100),
    ("Cc1cc[n+]([O-])c(S(=O)(=O)Cc2c(C(F)(F)F)nn(C)c2Cl)c1", "kochia", 100),
    ("Cn1nc(C(F)(F)F)c(CS(=O)(=O)c2cccc[n+]2[O-])c1OCC(F)(F)F", "kochia", 100),
]

For the compound Cn1nc(C(F)(F)F)c(C[S+]([O-])c2cccc[n+]2[O-])c1OCC(F)(F)F (racemic) , give its measured Kochia plant response rating value.
100

* * *

Provide the reported Plant response rating, Canarygrass of each item.
# Test system: littleseed canarygrass
# assay-details: Test D preemergence test
# Type: in vivo, Phalaris minor
# condition-details: 250 g ai/ha, scale 0 to 100

These recorded examples may help you get a feel for the data.
# compound, test-value
measured = [
    ("Cn1nc(C(F)(F)F)c(C(Cl)S(=O)(=O)c2cccc[n+]2[O-])c1Cl (stereo not drawn) [Compound 12]", 100),
    ("Cc1cc[n+]([O-])c([S+]([O-])Cc2c(C(F)(F)F)nn(C)c2OC(F)F)c1 (stereo not drawn) [Compound 1]", 100),
    ("Cc1cc[n+]([O-])c(S(=O)(=O)C(C)c2c(C(F)(F)F)nn(C)c2Cl)c1 (racemic) [Compound 14]", 20),
]

Hey, can you go through the list below and give me Plant response rating, Canarygrass for every item?
1. Cn1nc(C(F)(F)F)c(C[S+]([O-])c2cccc[n+]2[O-])c1OC(F)F (stereo not drawn) [Compound 3]
2. Cc1cc[n+]([O-])c(S(=O)(=O)C(Cl)c2c(C(F)(F)F)nn(C)c2Cl)c1 (racemic) [Compound 22]

1. 100
2. 100

Please look at this compound and report its Plant response rating, Canarygrass: Cc1cc[n+]([O-])c(S(=O)(=O)Cc2c(C(F)(F)F)nn(C)c2OC(F)F)c1 [Compound 2]
100

* * *

Provide the reported Velvetleaf plant response rating of each item.
# Test system: velvetleaf
# assay-details: Test C pre-/postemergence test
# Format: in vivo, Abutilon theophrasti
# condition-details: 125 g ai/ha, preemergence; scale 0 (no effect) to 100 (complete control)
Answers are plain numbers.

# molecule, Velvetleaf plant response rating
measured = [
    ("CC(c1c(C(F)(F)F)nn(CC(F)(F)F)c1Cl)[S+]([O-])c1cccc[n+]1[O-] (stereo not drawn) [Compound 46]", 0),
    ("CCc1cc[n+]([O-])c(S(=O)(=O)Cc2c(C(F)(F)F)nn(C)c2OC(F)F)c1 [Compound 102]", 80),
    ("Cn1nc(C(F)(F)F)c(C[S+]([O-])c2cc(Br)cc[n+]2[O-])c1Cl (racemic) [Compound 35]", 100),
    ("Cc1cc([S+]([O-])Cc2c(C(F)(F)F)nn(C)c2OCC(F)(F)F)[n+]([O-])cc1Cl (stereo not drawn) [Compound 70]", 100),
    ("CCn1nc(C(F)(F)F)c(C[S+]([O-])c2cc(C)cc[n+]2[O-])c1OCC(F)(F)F (racemic) [Compound 66]", 95),
]

Hey, can you go through the list below and give me Velvetleaf plant response rating for every item?
1. Cc1cc[n+]([O-])c(S(=O)(=O)Cc2c(C(F)(F)F)nn(C)c2OC(C)C(F)(F)F)c1 (stereo not drawn) [Compound 96]
2. C#CCOc1c(CS(=O)(=O)c2cccc[n+]2[O-])c(C(F)(F)F)nn1C [Compound 103]
3. CC(Oc1c(CS(=O)(=O)c2cccc[n+]2[O-])c(C(F)(F)F)nn1C)C(F)(F)F (stereo not drawn) [Compound 82]
4. CC(Oc1c(C[S+]([O-])c2ccc(Cl)c[n+]2[O-])c(C(F)(F)F)nn1C)C(F)(F)F (stereo not drawn) [Compound 87]

1. 40
2. 80
3. 80
4. 70

* * *

# System: naked crabgrass
# assay-details: Test F preemergence test
# Type: in vivo, Digitaria nuda
# condition-details: Preemergence; 31 g ai/ha; scale 0 to 100
measured-attribute: Plant response rating, Crabgrass, Naked
Answers are plain numbers.

Worked set:
# compound, Plant response rating, Crabgrass, Naked
rows = [
    ("CCc1cc[n+]([O-])c(S(=O)(=O)Cc2c(C(F)(F)F)nn(C)c2OCC(F)(F)F)c1 [Compound 60]", 20),
    ("Cn1nc(C(F)(F)F)c(C[S+]([O-])c2cccc[n+]2[O-])c1OC(F)F (stereo not shown) [Compound 3]", 90),
    ("Cn1nc(C(F)(F)F)c(C[S+]([O-])c2ccc(F)c[n+]2[O-])c1OCC(F)(F)F (stereo not shown) [Compound 67]", 70),
]

For each entry beneath this line, provide reported Plant response rating, Crabgrass, Naked.
1. Cc1cc[n+]([O-])c(S(=O)(=O)Cc2c(C(F)(F)F)nn(C)c2OCC(F)(F)F)c1 [Compound 31]
2. Cn1nc(C(F)(F)F)c(CS(=O)(=O)c2cccc[n+]2[O-])c1OCC(F)(F)F [Compound 29]
3. Cc1cc[n+]([O-])c([S+]([O-])Cc2c(C(F)(F)F)nn(C)c2OCC(F)(F)F)c1 (racemic) [Compound 30]

1. 85
2. 80
3. 98

GET Plant response rating, Crabgrass, Naked where system = naked crabgrass and item = CCn1nc(C(F)(F)F)c(C[S+]([O-])c2cc(C)cc[n+]2[O-])c1OCC(F)(F)F (racemic) [Compound 66]
25

* * *

# Tested on: kochia
# assay-details: Test F preemergence test
# Assay type: in vivo, Kochia scoparia
# condition-details: 16 g ai/ha, preemergence; scale 0 to 100
measured-attribute: Plant response rating, Kochia
Give bare numbers.

# compound, Plant response rating, Kochia
records = [
    ("CCn1nc(C(F)(F)F)c(C[S+]([O-])c2cc(C)cc[n+]2[O-])c1OCC(F)(F)F (racemic) [Compound 66]", 0),
    ("Cc1cc[n+]([O-])c(S(=O)(=O)Cc2c(C(F)(F)F)nn(C)c2OCC(F)(F)F)c1 [Compound 31]", 0),
    ("CC(Oc1c(C[S+]([O-])c2cccc[n+]2[O-])c(C(F)(F)F)nn1C)C(F)(F)F (stereo not shown) [Compound 77]", 0),
]

# next compound below
Report measured Plant response rating, Kochia; entry is CC(Oc1c(C[S+]([O-])c2ccc(Cl)c[n+]2[O-])c(C(F)(F)F)nn1C)C(F)(F)F (stereo not shown) [Compound 87]
0
